Measured values drawn from PubChem BioAssay (NCATS) for this set.

Molecular target: Ubiquitin carboxyl-terminal hydrolase 1 (Homo sapiens)
Experiment: Inhibitors of USP1/UAF1: Pilot qHTS (AID 504865); also: nearly all actives have a fitted effect of over 35% in size
Conditions: purified USP1/UAF1, Ub-rhodamine cleavage fluorescence; series mostly up to 114 µM
Results filed as inconclusive are left out. Active and inactive are the calls of the source. Calls follow the shape of the dose curve; as a rule, active = well fitted inhibition curve with a large enough effect; inconclusive = small, poorly fitted or top-dose-only effect; inactive = flat fitted curve, though single readings scatter.
Permitted responses: Yes for active, No for inactive

molecule | target | category
COCCc1ccc(OCC(O)CNC(C)C)cc1 (stereo unspecified) | Ubiquitin carboxyl-terminal hydrolase 1 (Homo sapiens) | No
CCOC(=O)C1=C(C)NC(C)=C(C(=O)OC)C1c1cccc([N+](=O)[O-])c1 (stereo unspecified) | Ubiquitin carboxyl-terminal hydrolase 1 (Homo sapiens) | No
OCCN1CCN(CC/C=C2/c3ccccc3Sc3ccc(C(F)(F)F)cc32)CC1 | Ubiquitin carboxyl-terminal hydrolase 1 (Homo sapiens) | Yes

Enquiry: # lookup: test call for CCCNC(C)C(=O)Nc1ccccc1C (stereo unspecified)
Return: No

Enquiry: What about CCc1c(C)[nH]c2c1C(=O)C(CN1CCOCC1)CC2 (stereo unspecified) ?
Return: No

Enquiry: Field entry: CC(=O)[C@@]1(O)CC[C@H]2[C@@H]3CCC4=CC(=O)CC[C@]4(C)[C@H]3CC[C@@]21C
Return: No

Enquiry: Follow-up entry: CC(C)COCC(CN(Cc1ccccc1)c1ccccc1)N1CCCC1 (stereo unspecified)
Return: No

Enquiry: Further, for CC(N=C(NC#N)Nc1ccncc1)C(C)(C)C (stereo unspecified) ?
Return: No

Enquiry: Next entry: NC(=O)c1ncn([C@@H]2O[C@H](CO)[C@@H](O)[C@H]2O)c1O
Return: No

Enquiry: Another: c1cnc(N2CCN(Cc3ccc4c(c3)OCO4)CC2)nc1
Return: No

Enquiry: # iterate: CNCCC(Oc1ccccc1OC)c1ccccc1 (stereo unspecified)
Return: No

====

Test: qHTS Assay for Lipid Storage Modulators (AID 1519)
Settings: Drosophila S3 cells, BODIPY lipid droplet/cell ratio, laser cytometry; measured here: lipid channel max response; cells loaded with oleic acid
Inconclusive results are not listed.
Threshold check on max response: at or above 10% gives yes, strictly below gives no.

molecule | category
CC(C)COCC(CN(Cc1ccccc1)c1ccccc1)N1CCCC1 (stereo not given) | yes
C=CCc1ccccc1OCC(O)CNC(C)C (stereo not given) | yes
C[N+](C)(C)CCCCCCCCCC[N+](C)(C)C | no
CCOC(=O)C1=C(C)NC(C)=C(C(=O)OC)C1c1cccc([N+](=O)[O-])c1 (stereo not given) | no
O=C1NCN(c2ccccc2)C12CCN(CCCC(c1ccc(F)cc1)c1ccc(F)cc1)CC2 | no

Enquiry: Dear colleague, could you confirm whether Cc1ccc(=O)n(-c2ccccc2)c1 has max response at or above 10%?
Return: no

Enquiry: Next molecule: CC(C)(Oc1ccc(CCNC(=O)c2ccc(Cl)cc2)cc1)C(=O)O
Return: no

Enquiry: Can you handle FC(F)(F)c1ccccc1-n1ccnc1 next?
Return: yes

Enquiry: And CNC1(C)C2CCC(C2)C1(C)C (stereo not given) ?
Return: yes

Enquiry: Then CCCCCCCC/C=C\CCCCCCCC(=O)NCc1ccc(O)c(OC)c1 ?
Return: no

====

Test: NFAT Signaling Pathway (AID 444);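 also: carbachol stimulus at about its EC50 of 1 µM final; % is scaled to controls: 0 for no effect and ±100 for the full control effect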
Settings: Jurkat NFAT-bla M1, carbachol, beta-lactamase ratio, 5 h; at 17.2 µM (top of the series)
Records with an inconclusive call do not appear.
measuredProperty: activity change, negative = inhibition (%)
Write the value in % as a bare number.

Enquiry: Value lookup for activity change, negative = inhibition; key = COc1cc(Cc2cnc(N)nc2N)cc(OC)c1OC
Return: -13.2

Enquiry: Same lookup for CO[C@@]1(NC(=O)CSCC#N)C(=O)N2C(C(=O)O)=C(CSc3nnnn3C)CS[C@@H]21 , please.
Return: -23.9

====

Target: M-phase phosphoprotein 8 (Homo sapiens) (UniProt Q99549)
Sequence (Q99549 whole entry, looked up): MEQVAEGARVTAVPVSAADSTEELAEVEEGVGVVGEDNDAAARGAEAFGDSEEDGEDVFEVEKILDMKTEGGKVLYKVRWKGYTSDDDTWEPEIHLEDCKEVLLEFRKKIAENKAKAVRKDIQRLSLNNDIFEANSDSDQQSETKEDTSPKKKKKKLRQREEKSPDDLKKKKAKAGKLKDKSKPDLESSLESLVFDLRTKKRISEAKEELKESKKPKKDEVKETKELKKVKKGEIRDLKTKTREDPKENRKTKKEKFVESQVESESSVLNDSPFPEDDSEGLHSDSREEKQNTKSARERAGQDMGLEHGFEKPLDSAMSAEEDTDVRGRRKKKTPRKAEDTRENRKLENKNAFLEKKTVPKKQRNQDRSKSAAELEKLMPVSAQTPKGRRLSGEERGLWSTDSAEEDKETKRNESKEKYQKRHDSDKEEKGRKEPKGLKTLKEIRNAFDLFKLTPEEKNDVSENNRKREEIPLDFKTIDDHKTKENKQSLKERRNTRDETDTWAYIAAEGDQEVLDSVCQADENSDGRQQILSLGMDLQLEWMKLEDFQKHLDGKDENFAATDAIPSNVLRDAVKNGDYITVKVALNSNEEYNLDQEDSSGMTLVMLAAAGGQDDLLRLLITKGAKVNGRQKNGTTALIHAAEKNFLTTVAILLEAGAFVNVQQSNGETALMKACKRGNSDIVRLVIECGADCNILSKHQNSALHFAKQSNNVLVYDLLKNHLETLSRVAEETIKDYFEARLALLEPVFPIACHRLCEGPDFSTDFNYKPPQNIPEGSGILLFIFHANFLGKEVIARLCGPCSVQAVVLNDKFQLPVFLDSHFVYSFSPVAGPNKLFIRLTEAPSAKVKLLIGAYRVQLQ
Assay: qHTS Validation Assay for Inhibitors for MPP8 Chromodomain Interactions with Methylated Histone Tails (AID 488949);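 also: 50 nM MPP8 with 50 nM peptide preformed then compounds added for 30 min; AlphaScreen signal from MPP8 chromodomain bound to biotinylated H3K9me3 peptide; top concentration of the series differs between compounds; % is scaled to controls: 0 for no effect and ±100 for the full control effect; nearly all actives have a fitted effect of over 55% in size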
Conditions: AlphaScreen MPP8 binding to H3K9me3 peptide; series mostly up to 57.1 µM
Inconclusive results are not listed. The source made the active and inactive calls. The call rests on the fitted dose curve; in most records, active means well fitted inhibition curve with a large enough effect; inconclusive means small, poorly fitted or top-dose-only effect; inactive means no such curve, though single readings can be large or run the other way.
Please reply with one of these outcomes: label 1 for active, label 0 for inactive

Consider the following illustrative entries.
compound | category
CC(=O)[C@@]1(O)CC[C@H]2[C@@H]3CCC4=CC(=O)CC[C@]4(C)[C@H]3CC[C@@]21C | label 0
C[C@]12CC[C@@H]3c4ccc(O)cc4C[C@@H](CCCCCCCCCS(=O)CCCC(F)(F)C(F)(F)F)[C@H]3[C@@H]1CC[C@@H]2O (stereo partly specified) | label 0
CO[C@@]1(NC(=O)CSCC#N)C(=O)N2C(C(=O)O)=C(CSc3nnnn3C)CS[C@@H]21 | label 0

Enquiry: // outcome(item) with item = C[C@]12CCC(=O)C=C1CC[C@@H]1[C@@H]2CC[C@@]2(C)[C@H]1CC[C@]2(O)C(=O)CO
Return: label 0

Enquiry: # repeat for CCCCNc1ccc(C(=O)OCCN(C)C)cc1
Return: label 0

Enquiry: Subsequent entry: C[N+](C)(C)CCOC(=O)CCC(=O)OCC[N+](C)(C)C
Return: label 0

Enquiry: Then N[C@@H](COP(=O)(O)O)C(=O)O ?
Return: label 0

Enquiry: For COCCCC/C(=N\OCCN)c1ccc(C(F)(F)F)cc1 then?
Return: label 0

Enquiry: Proceed to CCCN(CCC)C(=O)C(CCC(=O)O)NC(=O)c1ccccc1 (stereo unspecified)
Return: label 0

====

Assay: qHTS Assay for Lipid Storage Modulators (AID 1519)
Settings: Drosophila S3 cells, BODIPY lipid droplet/cell ratio, laser cytometry; measured here: cell count channel max response; cells loaded with oleic acid
Records with an inconclusive call do not appear.
measuredProperty: max response (%)
The reply should contain only the number, in %.

Below, each entry is followed by its recorded max response result.
molecule | unit | max response
C[N+](C)(C)CCOC(N)=O | % | 10.4
CC(C)(Oc1ccc(CCNC(=O)c2ccc(Cl)cc2)cc1)C(=O)O | % | -0.576
O=C(O)CN(CCOCCOCCN(CC(=O)O)CC(=O)O)CC(=O)O | % | -9.11
O=C1NCN(c2ccccc2)C12CCN(CCCC(c1ccc(F)cc1)c1ccc(F)cc1)CC2 | % | -19.4
CCN1CCc2nc(N)oc2CC1 | % | -8.22
NCCCNCCSP(=O)(O)O | % | 11.3

Here's the next entry for you.
Enquiry: Which value of max response has been reported for CC(=O)OC(C)C[N+](C)(C)C (stereo not drawn) in the records?
Return: 18.4

====

Assay: qHTS of pediatric cancer cell lines to identify multiple opportunities for drug repurposing: Confirmatory screen for A673 cells (AID 1347110);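 also: cells exposed to compound for 48 h before the viability read; nearly all actives have a fitted effect of over 65% in size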
Conditions: A673 Ewing sarcoma cell viability; series mostly up to 45.9 µM
Results filed as inconclusive are left out. The source made the active and inactive calls. Calls follow the shape of the dose curve; as a rule, active = well fitted cell-killing curve with a large enough effect; inconclusive = small, poorly fitted or top-dose-only effect; inactive = flat fitted curve, though single readings scatter.
Answer with one of the outcomes given here: active, inactive

compound | category
C[C@]12C=CC(=O)C=C1CC[C@H]1[C@@H]3C[C@@H](O)[C@](O)(C(=O)CO)[C@@]3(C)C[C@H](O)[C@@]12F | active
C[C@]12CC[C@@H]3c4ccc(O)cc4C[C@@H](CCCCCCCCCS(=O)CCCC(F)(F)C(F)(F)F)[C@H]3[C@@H]1CC[C@@H]2O (some centres undefined) | active
C[n+]1cc2c3c(ccc2c2ccc4cc5c(cc4c21)OCO5)OCO3 | active

Attention now turns to another entry.
Enquiry: // outcome(item) with item = CN1C[C@H](C(=O)N[C@]2(C)O[C@@]3(O)[C@@H]4CCCN4C(=O)[C@H](Cc4ccccc4)N3C2=O)C[C@@H]2c3cccc4[nH]cc(c34)C[C@H]21
Return: inactive

====

Tested on: MKL-1
Assay: qHTS assay to identify novel small-molecules to repurpose for Merkel cell carcinoma treatment (AID 1296009); also: % is scaled to controls: 0 for no effect and ±100 for the full control effect; nearly all actives have a fitted effect of over 60% in size
Settings: MCC and control cell lines, CellTiter-Glo viability, 72 h; series mostly up to 46 µM
Records with an inconclusive call do not appear. The source made the active and inactive calls. Calls come from the whole dose curve; as a rule, active = well fitted inhibition curve with a large enough effect; inconclusive = small, poorly fitted or top-dose-only effect; inactive = flat fitted curve, though single readings scatter.
I would appreciate it if you answered using one of these outcomes: active, inactive

# count of solved cases: 6
compound | target | category
CN1C[C@H](C(=O)N[C@]2(C)O[C@@]3(O)[C@@H]4CCCN4C(=O)[C@H](Cc4ccccc4)N3C2=O)C[C@@H]2c3cccc4[nH]cc(c34)C[C@H]21 | MKL-1 | inactive
CC1=NS(=O)(=O)c2cc(Cl)ccc2N1 | MKL-1 | inactive
CCOC(=O)c1cnc2c(cnn2CC)c1NN=C(C)C | MKL-1 | inactive
CCCCCN(CCCCC)C(=O)C(CCC(=O)O)NC(=O)c1ccc(Cl)c(Cl)c1 (stereo unspecified) | MKL-1 | inactive
CC(=O)Oc1cc(C(C)C)c(OCCN(C)C)cc1C | MKL-1 | inactive
Brc1c(NC2=NCCN2)ccc2nccnc12 | MKL-1 | inactive

Enquiry: For CC(=O)OCC1=C(C(=O)O)N2C(=O)[C@@H](NC(=O)Cc3cccs3)[C@H]2SC1 , which call appears in the assay record?
Return: inactive

Enquiry: CN(C)[C@@H]1C(=O)C(C(N)=O)=C(O)[C@@]2(O)C(=O)C3=C(O)c4c(O)ccc(Cl)c4[C@@H](O)[C@H]3C[C@@H]12 ?
Return: inactive

Enquiry: // repeat for CC(C)(C)NCC(O)c1cc(O)cc(O)c1 (stereo unspecified) and report
Return: inactive
